Just for reference, the domain aggregation screens of Martell et al. (2025) is where these values come from.

experiment: soluble fraction after stress (log2 fold change); higher = more stays soluble; pooled small domains, quantitative proteomics; conditions: stress: pH 4
Please mark True if the recorded soluble fraction (log2) is equal to or greater than -0.8, and False if it falls below.

Chain | Class
HMKVYPIMEAIANNNIELVKLLLEYHADLNIKDSNGNTPLALAKETGAKEVEDLLLQWMKQHT | False
HMKVNMIIVMKPGARETDIQEVSNVLKSAGLGVHISKGTERTIIGVIGDKRLLNGIPLDLMHGVDKLVPIM | True
HMIETLGDATFKRLKAMILDGTLEPGTRLSEKKFADHLGVSRTPVREAIGQLVSEGLAKRSAGSAPVVSS | True
HMVDVNLLKYYVMESGKSLTDVAAAIGVTPATLHRKMSGESDFYRKEMQDIASYLGLDRDTIDRIFF | False
HMLPERIQTIVALIGHGRAMDLVREFGGQEIKFPAQEGNDTWAALVEVIGEAATRKLAAVFGGGQAPPVYI | True
HMLPQGKGTAMWLADHLAAASVTLDAGARKLLEDTLGEDMSRLPGVLRVLEATFGSDAGRLSAEDIEPFL | False
HMPRENLAYTLIMDGIVQHKNLPRASVTEAWLKQELQKAGINDFRQVLIAGIDSKGQLYFQPKQK | True
HMETGGLAQEAERELALLQEQIAHHEALYRKGTPEISDGAFDELFDRYQELADSLGVPADERIDRA | False

###

assay: soluble fraction after stress (log2 fold change); higher = more stays soluble; pooled small domains, quantitative proteomics; settings: stress: pH 4
Please mark yes (1) if the recorded soluble fraction (log2) is equal to or greater than -0.3, and no (0) if it falls below.

Chain | Class
HMEDDIRSSIRTLDQFISKNQITLSKDVKNYILQLLSNDRMVTINELEKIKIYYDSNENIDLDTVKILLN | no (0)
HMPDLQKAIDDLLQVVDKRLNTSFESILNEVNSEKEAVAFFLALLEAVRWGFVKASQSDEGIKIEK | no (0)
HMRNSSLQTDLELRAYVIDGLNHFWTPEEIAGRWSLAHPDRPVSFATIYRHIKRKLLPGIEPKTHLRRRGK | yes (1)
HMNDSGIIGVVINDHEKYEGHVLEDGFISSSLSALSREIDVAGYFMMVKTVVYEGFFQELKGIGNV | yes (1)
HMKVEIVRVVKDIHIGDEITKDMVRTVEVGGYNLPDGVVKDTATVIGRFASADMVPGDYIISSKIADAP | yes (1)
HMDLPATVPNLEGLTEVTARNKLTVAGLSLGEVKEVESDKEKGTVVGQSIAYGKRVTKGTKVDIEISSGK | yes (1)
HMTLDEDYFYYTLKAKEGYYRLYKKLGVDRKIIDSLNPNLKEMGLQVGMVIRVPKSQTSDLSVKNSLLVE | no (0)
HMAAQDIILKRNAEQIEAIVKEITDTDVKYRKFTNTEGVTYSIRRSEVFSITYENGTMDLFA | yes (1)
HMQGVNLTETEKNFIAQVLSPLLKQGQSLYQIRTNHPEIKLSVKTLYTYIESGIFKESGINNFSLRRQ | no (0)
HMGSLKISNPVKDTLWIQGVDGLKSIEIYSSTGQLVKTILGNQGDVSSLPKGVYFLKINTPSESLTAKIIK | yes (1)
HMSKTEEIAYTTFVKYLENKDIEEVYLGNNAKIKVILKDGREMITDNPRTADFKKDLLLHDIKVVEKT | yes (1)
HMEYDYKVIDFFKDYYSYLNYQEIEPNILDKQLTTLTEEESAKIAGIMKLDYEDFTRGIEIVTGS | no (0)
HMRSFGTVAQARGRWKAFYVGPDKRRHTPGVTFSNPIRAQGWLAQELTLIELGQWTPPAQRREKAEVAS | no (0)
HMGQVSDETGLARVVDALLAAHPDEVAKYRAGKTSLLGWFMGQVMKETRGQANPDLARALVLERLE | yes (1)
HMTNISDYILEEYYKNVYPNDLNTKRIVIPNKYEEYAGKYTYITIARMVTYEHDAKKALKVLHQQAT | no (0)
HMKFYKMIDESDEKIENPEIMIFQIIELVSSTTYSAIINKEPVDVETLKPYLYQTIRTIIINHQS | no (0)
HMNMVSGHLQIKKGYYYVVLSYYDNRNKRHVKYVSTGLPEKGNKRKAEAALARVRSEFEPPQE | yes (1)

###

assay: soluble fraction after stress (log2 fold change); higher = more stays soluble; pooled small domains, quantitative proteomics; conditions: stress: pH 4
Grouping by measured soluble fraction (log2) is done with the following cut points: 1 = under -0.4, 2 = from -0.4 up to 0.02, 3 = 0.02 and over

Chain | Class
HMRYLMPDLVNRRYEPVRSLLEARGIRFGNVIFEPYEGLPPGIVLRQDPPAGHPLPRRRTVSLVVSGPGGR | 3
HMAPSLQISLKQAIITAQQQHPGSKALNADFDGARGTPRYVIETLLPTGELRELTIDAQSGQVMEDHPDR | 3
HMIDMQIDTARFGTLGVDDDKIITFPKGLPGFEDERRFFLMDHSGSSKIKWLHSADNPGLALV | 1
HMEALGLSPRQVDVLRLLVEGRSNKMIMRELELSESTVKTHLQAIFRRLGVSSRTQAVVAAARLGL | 1
HMGSGLAAAEKIRKAHPEIKIVVATSLIDTQVLARAKAVGADSLWYKDGDEGTLMQVVRRTMAGDHIFP | 2
HMFQYEKIKDYILTGLEEGTWQAGDKIPSEAELVMSLNVSRMTVNRAVRELANSGLLVRIPGAGTFVATE | 1
HMPLEQAELRLDLKQAILQMDRQTQELLLLRYVDGLSPGEAGKVLELSRFAVYRREKEALRKLRDYFSH | 1
HMRPTAWEQVSRHIDQHGSIGNTEVRKAMETENVLAASKQIKKWLEQGLLIILNPTAGTRARRYSKPNM | 2
HMEMPGGVMRTLSTIAYNQPVLQSKLVKVRGPRAYEDVHILRDMGLVSARSVGQTVELSTTPKFAEQF | 3
HMAAGELSGEALIALIERHPMALSALATTFGHSESDLRAFVEPLARQGRLRLFESQGTLFVGGIG | 2
HMKSVQIPQSITVKEFSQAIEVSVADVIKKLMSMGVMVSQNKEINVDTAILVGEEFGVTVNVA | 2
HMEGLATRLRFLRQARGLSYHALARLSGVTHTALHQIEAGKNIPGLDTAEKIAMALDVDPRWFAYGRGDPS | 1
HMDSPVEEWANRGLAYDPSLVTETMAKLYAKQGQIGLARKAFKRLALIYPEKSVYFAFQLKKLSNN | 3
HMFAKVEGITGDILDKLQQQRGFLALSDKSSPEAIYDTFGVSKKVFKQAIGTLFKQQKISIEAEGIRLV | 2
HMANMTAKQINMFGDKLSRDKDFQSYYIAKSGDSREQYAQDIKGKLLDPFYVNAWMPYLEKIGFVPS | 3
HMSWEELLEHLEKAAERGEEVRIAGVTLHDEEDFKRALRWLKEWL | 1
HMLAAGTSLTVDTESSNLNIRQEPSTEGVILGKAAKGEVVTLVEQSSDEWWKIKTKDGEEGYAYARYLR | 3

###

experiment: soluble fraction after stress (log2 fold change); higher = more stays soluble; pooled small domains, quantitative proteomics; details: stress: pH 4
Please mark MET if the recorded soluble fraction (log2) is equal to or greater than -0.3, and NOT MET if it falls below.

Chain | Class
HMVGNEEALRAIVESIIAQNTTEVASFREGKEGLIGWFLGQVMRQTGGKADPKLARQILLELLKQ | NOT MET
HMNVEVDSIGDDDFLVKVSAGTSTEHRVTLTDAYWEQIWSSSLPKKEIISLSFAFLLEREPNSSIMRT | NOT MET
HMIEGEQVRLLRLLERQEGGMLPLGDKSPASDILLLTGMSKKTFKMAVGALYKAQMITMTPTSIKLVK | MET
HMLGDAVLRQVLETIPEDPAVDYLELRRNTGMTEADLDRVLADLENLGVINKKRTVEQVLYWRT | NOT MET
HMFYWTDLIGLDVINTADERLGKVVGLIETGANAVLRVMGDDQVERLLPFGSAVVLTVEKEAGQIRVEW | NOT MET
HMKETLSINSTDFEVRRSSRRKRISVGFDTGTETFFIAAPTKLAGTDILRILGPQISRLMDRLT | NOT MET
HMNQTEKSKITHNELLKAAHSLFIEQGFNHTTITDIVTRAGYSTGIFYKHYKTKTDILVELWTNYIE | NOT MET
HMSEYIFGKNVVKEAFNNPSRIEEIYVLDKNMEFVSLAKKYHIKYTVITSSEMNKMVSGNHQGVVALVK | MET
HMENLRLSELTVERGHRLAGRTLADIASAPNSPKYLIVLIQRGQETVIPTGSTVILPGDVLILAQS | NOT MET
HMSRYLLPYAFARTQQVLLEEKSGELTLWMHSGSNLGGISEVTRKYAVQHVTHEPMDALLNRISSAYAN | NOT MET
HMGDWEKALAQFAAHRLANGSTAFLDEMYPIFERILLQAALNKTGGRKIEAAELLGWGRNTLTRKLKELGF | NOT MET
HMNDTNEEAVLSIILKNPQATQGAIAKEVGASLSTVKRIMRNLQKSGKLRREGTNRNGSWVVTGQK | MET
HMFQPFFENLRKASIPVSLREYLTFLEGMKKGLVTYDIEAFYFLARAAMVKDERNIDKFDRAFSATFKG | MET
HMLKPQQTQRIYAMAARLGVLESGNKNDMLHTIVYRLTQKESIRSLNENEYKTVVSELAERLKL | NOT MET
HMTDNSTTTIRNLKIEWLLEEIRNAVRTGVSVDAAVERISNNPFVKPPEDLLNEARIIFLQNAGQI | NOT MET
HMNTEFDVPDVVGKTLDEAEFVLKGSNLKRGLIMPVDDPSKAPGTIVRQNPEAGAGNKIRVGDVVDLWVVG | MET
HMAIDPLLDKGYEQYDKGEFTEAVKSFNRAIEIDPKNAEAHFLRAMTYQGLALSKLAVADLEKAIV | MET
